Numbers sourced from the supplement of paper PMC11246515.

Here the recorded total protein half-life in vivo is given for each entry.
test: total protein half-life in vivo (active degradation + dilution); higher = more stable protein; conditions: wild type E. coli NCM3722; growth: P-lim chemostat; doubling time 6 h
Don't forget the unit after the number, please.

total protein half-life in vivo for MIKWPWKVQESAHQTALPWQEALSIPLLTCLTEQEQSKLVTLAERFLQQKRLVPLQGFELDSLRSCRIALLFCLPVLELGLEWLDGFHEVLIYPAPFVVDDEWEDDIGLVHNQRIVQSGQSWQQGPIVLNWLDIQDSFDASGFNLIIHEVAHKLDTRNGDRASGVPFIPLREVAGWEHDLHAAMNNIQEEIELVGENAASIDAYAASDPAECFAVLSEYFFSAPELFAPRFPSLWQRFCQFYQQDPLQRLHHANDTDSFSATNVH ?
1.76 h

total protein half-life in vivo for MKKIAITCALLSSLVASSVWADAASDLKSRLDKVSSFHASFTQKVTDGSGAAVQEGQGDLWVKRPNLFNWHMTQPDESILVSDGKTLWFYNPFVEQATATWLKDATGNTPFMLIARNQSSDWQQYNIKQNGDDFVLTPKASNGNLKQFTINVGRDGTIHQFSAVEQDDQRSSYQLKSQQNGAVDAAKFTFTPPQGVTVDDQRK ?
5.98 h

total protein half-life in vivo for MLEILYQDEWLVAVNKPSGWLVHRSWLDRDEKVVVMQTVRDQIGQHVFTAHRLDRPTSGVLLMGLSSEAGRLLAQQFEQHQIQKRYHAIVRGWLMEEAVLDYPLVEELDKIADKFAREDKGPQPAVTHYRGLATVEMPVATGRYPTTRYGLVELEPKTGRKHQLRRHLAHLRHPIIGDSKHGDLRQNRSGAEHFGLQRLMLHASQLSLTHPFTGEPLTIHAGLDDTWMQALSQFGWRGLLPENERVEFSAPSGQDGEISS [P0AA41] ?
5.28 h

====

assay: total protein half-life in vivo (active degradation + dilution); higher = more stable protein; details: E. coli NCM3722 delta-lon; growth: N-lim chemostat; doubling time 6 h
result_type: total protein half-life in vivo (h)
Use h as the unit, but write only the number.

sequence_input	total protein half-life in vivo (h)
MERIVVTLGERSYPITIASGLFNEPASFLPLKSGEQVMLVTNETLAPLYLDKVRGVLEQAGVNVDSVILPDGEQYKSLAVLDTVFTALLQKPHGRDTTLVALGGGVVGDLTGFAAASYQRGVRFIQVPTTLLSQVDSSVGGKTAVNHPLGKNMIGAFYQPASVVVDLDCLKTLPPRELASGLAEVIKYGIILDGAFFNWLEENLDALLRLDGPAMAYCIRRCCELKAEVVAADERETGLRALLNLGHTFGHAIEAEMGYGNWLHGEAVAAGMVMAARTSERLGQFSSAETQRIITLLKRAGLPVNGPREMSAQAYLPHMLRDKKVLAGEMRLILPLAIGKSEVRSGVSHELVLNAIADCQSA	3.72

Proceed to the following item.
total protein half-life in vivo for MKSRAAVAFAPGKPLEIVEIDVAPPKKGEVLIKVTHTGVCHTDAFTLSGDDPEGVFPVVLGHEGAGVVVEVGEGVTSVKPGDHVIPLYTAECGECEFCRSGKTNLCVAVRETQGKGLMPDGTTRFSYNGQPLYHYMGCSTFSEYTVVAEVSLAKINPEANHEHVCLLGCGVTTGIGAVHNTAKVQPGDSVAVFGLGAIGLAVVQGARQAKAGRIIAIDTNPKKFDLARRFGATDCINPNDYDKPIKDVLLDINKWGIDHTFECIGNVNVMRAALESAHRGWGQSVIIGVAVAGQEISTRPFQLVTGRVWKGSAFGGVKGRSQLPGMVEDAMKGDIDLEPFVTHTMSLDEINDAFDLMHEGKSIRTVIRY ?
4.95
